Avi-tagged FL MALT-1 (Homo sapiens (Human), UniProt Q9UDY8) measurements of IC50, listed per entry.
Sequence (Q9UDY8 whole entry): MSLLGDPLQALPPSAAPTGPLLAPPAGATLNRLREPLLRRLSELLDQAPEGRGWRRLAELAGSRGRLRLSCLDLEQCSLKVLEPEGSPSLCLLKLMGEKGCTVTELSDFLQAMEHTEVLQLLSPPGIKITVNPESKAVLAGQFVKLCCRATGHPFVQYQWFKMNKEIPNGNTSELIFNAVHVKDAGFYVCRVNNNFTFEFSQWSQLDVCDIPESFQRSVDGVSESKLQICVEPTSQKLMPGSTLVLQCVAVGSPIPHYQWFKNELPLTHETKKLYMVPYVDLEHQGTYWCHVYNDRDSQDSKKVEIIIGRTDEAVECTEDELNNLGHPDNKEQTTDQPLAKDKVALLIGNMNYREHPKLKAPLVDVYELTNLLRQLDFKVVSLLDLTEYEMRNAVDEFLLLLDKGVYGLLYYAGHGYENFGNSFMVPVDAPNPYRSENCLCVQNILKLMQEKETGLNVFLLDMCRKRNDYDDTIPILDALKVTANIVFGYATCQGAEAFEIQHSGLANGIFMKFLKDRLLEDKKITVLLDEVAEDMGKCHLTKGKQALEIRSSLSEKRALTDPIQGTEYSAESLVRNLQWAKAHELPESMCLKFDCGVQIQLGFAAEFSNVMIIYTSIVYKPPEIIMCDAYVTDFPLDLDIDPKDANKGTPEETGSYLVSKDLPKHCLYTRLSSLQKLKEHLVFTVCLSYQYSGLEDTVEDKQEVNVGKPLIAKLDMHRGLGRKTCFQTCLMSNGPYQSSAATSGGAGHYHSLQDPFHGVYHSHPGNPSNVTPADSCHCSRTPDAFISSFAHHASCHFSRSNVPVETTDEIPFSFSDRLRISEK
OUTCOME MEASURE: IC50

CPD SMILES: C=C(CO)c1ccnc(-n2cc(S(=O)(=O)Nc3c(OC)ccc4cnn(C)c34)cn2)c1
OUTCOME MEASURE: IC50
VAL: ≤ 400 nM

CPD SMILES: COc1ccc2cnn(C)c2c1NS(=O)(=O)c1cnn(-c2cc(C(F)(F)F)ccn2)c1
OUTCOME MEASURE: IC50
VAL: ≤ 400 nM

CPD SMILES: Cn1ncc2cccc(NS(=O)(=O)c3cnn(-c4cc(C(F)(F)F)ccn4)c3)c21
OUTCOME MEASURE: IC50
VAL: 400 to 1000 nM

CPD SMILES: COCC(COC)(OC)c1ccnc(-n2cc(S(=O)(=O)Nc3cccc4cnn(C)c34)cn2)c1
OUTCOME MEASURE: IC50
VAL: > 2500 nM

CPD SMILES: [2H]c1nn(C([2H])([2H])[2H])c2c(NS(=O)(=O)c3cnn(-c4cc(C(F)(F)F)ccn4)c3)cccc12
OUTCOME MEASURE: IC50
VAL: ≤ 400 nM

CPD SMILES: Cn1ncc2cccc(NS(=O)(=O)c3cnn(-c4cc(C5=CCOCC5)ccn4)c3)c21
OUTCOME MEASURE: IC50
VAL: > 2500 nM

CPD SMILES: CCc1ccc2cnn(C)c2c1NS(=O)(=O)c1cnn(-c2ccnc(C(F)(F)F)c2)c1
OUTCOME MEASURE: IC50
VAL: ≤ 400 nM
